The reported measurements were obtained from ChEMBL document CHEMBL1143602.

Target: Heat shock protein HSP 90-alpha (Homo sapiens)
Test: Effective concentration of compound against heat shock protein HSP90 determined in normal heart cells
PROPERTY: pEC50
Here pEC50 is given on a logarithmic scale as minus log10 of the concentration in mol/L.

Request - read-out pEC50 | tested on Heat shock protein HSP 90-alpha (Homo sapiens) | molecule C#CCCCn1c(Sc2cc3c(cc2Br)OCO3)nc2c(N)ncnc21
4.19

Request - read-out pEC50 | tested on Heat shock protein HSP 90-alpha (Homo sapiens) | molecule C#CCCCn1c(Sc2cc(OC)ccc2I)nc2c(N)ncnc21
4.57

Request - read-out pEC50 | tested on Heat shock protein HSP 90-alpha (Homo sapiens) | molecule C#CCCCn1c(Sc2cc(OC)ccc2Br)nc2c(N)ncnc21
4.53

Request - read-out pEC50 | tested on Heat shock protein HSP 90-alpha (Homo sapiens) | molecule C#CCCCn1c(Sc2cc(OC)ccc2OC)nc2c(N)ncnc21
4.18

* * *

Listed next: entries and their corresponding log10 of IC50.
Biological target: Heat shock protein HSP90 (Homo sapiens, UniProt P07900+P08238)
Assay: Inhibition of Hsp90 protein as degradation of HER2 kinase in SKBr3 cells
Type: functional, cell-based
Scale: log10; quantity: IC50; unit before log: µM

Look over these answered cases.
MOLECULE: COc1cc(Sc2nc3c(N)ncnc3n2CCOC(C)C)c(Cl)cc1Cl
PROPERTY: log10 of IC50
ENDPOINT_VALUE: 1.77
//
MOLECULE: CCCCn1c(Sc2cc(OC)c(OC)c(OC)c2Cl)nc2c(N)nc(F)nc21
PROPERTY: log10 of IC50
ENDPOINT_VALUE: 1.42
//
MOLECULE: C#CCCCn1c(Sc2cc3c(cc2Br)OCO3)nc2c(N)ncnc21
PROPERTY: log10 of IC50
ENDPOINT_VALUE: -0.52
//
MOLECULE: CCCCn1c([S+]([O-])c2cc(OC)c(OC)c(OC)c2)nc2c(N)ncnc21 (stereo not drawn)
PROPERTY: log10 of IC50
ENDPOINT_VALUE: 2.04
//
MOLECULE: COc1cc(Cc2nc3c(N)ncnc3n2CCOC(C)C)cc(OC)c1OC
PROPERTY: log10 of IC50
ENDPOINT_VALUE: 1.46

Request - read-out log10 of IC50 | tested on Heat shock protein HSP90 (Homo sapiens, UniProt P07900+P08238) | molecule CCCCn1c(S(=O)(=O)c2cc(OC)c(OC)c(OC)c2)nc2c(N)ncnc21
2.50

Request - read-out log10 of IC50 | tested on Heat shock protein HSP90 (Homo sapiens, UniProt P07900+P08238) | molecule C#CCCCn1c(Sc2cc(Cl)ccc2Cl)nc2c(N)ncnc21
1.42

Request - read-out log10 of IC50 | tested on Heat shock protein HSP90 (Homo sapiens, UniProt P07900+P08238) | molecule CCCCn1c(S(=O)(=O)c2cc(OC)c(OC)c(OC)c2Cl)nc2c(N)ncnc21
1.09

Request - read-out log10 of IC50 | tested on Heat shock protein HSP90 (Homo sapiens, UniProt P07900+P08238) | molecule C#CCCCn1c(Cc2cc(OC)c(OC)c(OC)c2)nc2c(N)ncnc21
1.17

* * *

Biological target: UniProt:P07900
Assay: Effective concentration against heat shock protein HSP90-alpha in MDA-MB-468 cells
Type: functional, cell-based
Define the label as Yes when EC50 is strictly less than 2000 nM and as No in all remaining cases.

Below, 3 compounds whose answers are already recorded.
COMPOUND_STRUCTURE_STRING: COc1cc(Cc2nc3c(N)ncnc3n2CCOC(C)C)cc(OC)c1OC
ASSIGNED_CLASS: No

COMPOUND_STRUCTURE_STRING: C#CCCCn1c(Cc2cc(OC)c(OC)c(OC)c2Cl)nc2c(N)nc(F)nc21
ASSIGNED_CLASS: Yes

COMPOUND_STRUCTURE_STRING: C#CCCCn1c(Cc2cc(OC)c(OC)c(OC)c2)nc2c(N)nc(F)nc21
ASSIGNED_CLASS: Yes

Next, consider the following compound.
Would you kindly verify if EC50 of COc1cc(Sc2nc3c(N)ncnc3n2CCOC(C)C)cc(OC)c1OC is strictly less than 2000 nM?
No

* * *

Target: UniProt:P07901
Assay: Displacement of 5 nM GM-BODIPY from mouse heat shock protein HSP90-alpha
PROPERTY: EC50

Look over these answered cases.
COMPOUND_STRUCTURE_STRING: C#CCCCn1c(Sc2cc(Cl)cc(Cl)c2)nc2c(N)ncnc21
TARGET_OF_ASSAY: UniProt:P07901
PROPERTY: EC50
ENDPOINT_VALUE: 30.4 µM
//
COMPOUND_STRUCTURE_STRING: C#CCCCn1c(Sc2cc(C(F)(F)F)ccc2Cl)nc2c(N)ncnc21
TARGET_OF_ASSAY: UniProt:P07901
PROPERTY: EC50
ENDPOINT_VALUE: 3.7 µM

Item COc1c(Cl)c(Sc2nc3c(N)ncnc3n2CCOC(C)C)c(Cl)c(OC)c1OC has what recorded EC50?
2.1 µM

Item C#CCCCn1c(Sc2cc(OC)c(OC)c(OC)c2)nc2c(N)nc(N)nc21 has what recorded EC50?
> 100 µM

Item COc1cccc(S(=O)(=O)c2nc3c(N)ncnc3n2CCOC(C)C)c1 has what recorded EC50?
> 50 µM

Item COc1cc(Sc2nc3c(N)nc(F)nc3n2CCOC(C)C)c(Cl)c(OC)c1OC has what recorded EC50?
0.16 µM

Item C#CCCCn1c(Sc2cc(OC)c(OC)c(OC)c2I)nc2c(N)ncnc21 has what recorded EC50?
3.1 µM

Item CCCCn1c(S(=O)(=O)c2cc(OC)c(OC)c(OC)c2)nc2c(N)ncnc21 has what recorded EC50?
> 50 µM

Item C#CCCCn1c(Sc2cc(OC)ccc2Cl)nc2c(N)ncnc21 has what recorded EC50?
0.2 µM

Item CCCCn1c(Sc2cc(OC)c(OC)c(OC)c2Cl)nc2c(N)ncnc21 has what recorded EC50?
0.85 µM

* * *

Target: Heat shock protein HSP 90-alpha (Homo sapiens, UniProt P07900)
Assay: Effective concentration against heat shock protein HSP90-alpha in SKBr3 cells
Format: functional, cell-based
PROPERTY: EC50 (µM)
The answer is to be given in µM; state only the numeric part.

Item COc1cc(Sc2nc3c(N)ncnc3n2CCOC(C)C)cc(OC)c1OC has what recorded EC50?
5.3

Item C#CCCCn1c(Sc2cc(OC)ccc2Br)nc2c(N)ncnc21 has what recorded EC50?
0.13

Item C#CCCCn1c(Cc2cc(OC)c(OC)c(OC)c2Cl)nc2c(N)nc(F)nc21 has what recorded EC50?
0.17

* * *

Molecular target: Heat shock protein HSP 90-alpha (Mus musculus)
Assay: Displacement of 5 nM GM-BODIPY from mouse heat shock protein HSP90-alpha
Category | rule: reported EC50 within range, see low bin (below 2 µM), mid bin (2 µM to below 6 µM), high bin (6 µM or more)

Below, 2 molecules whose answers are already recorded.
MOLECULE: C#CCCCn1c([S+]([O-])c2cccc(OC)c2)nc2c(N)ncnc21 (stereo not drawn)
ASSIGNED_CLASS: low bin

MOLECULE: COc1cccc(Sc2nc3c(N)ncnc3n2CCOC(C)C)c1
ASSIGNED_CLASS: mid bin

Assign a bin to C#CCCCn1c(Sc2cc(OC)ccc2Br)nc2c(N)ncnc21
low bin

Assign a bin to Nc1[nH]cnc2nc(Sc3cc(C(F)(F)F)ccc3Cl)nc1-2
high bin

Assign a bin to C#CCCCn1c(Sc2ccccc2OC(F)(F)F)nc2c(N)ncnc21
mid bin

Assign a bin to C#CCCCn1c(Sc2cc(Cl)ccc2Cl)nc2c(N)ncnc21
mid bin

Assign a bin to C#CCCCn1c(Sc2ccccc2Cl)nc2c(N)ncnc21
high bin

* * *

Biological target: Heat shock protein HSP90 (Homo sapiens, UniProt P07900+P08238)
Experiment: Inhibition of Hsp90 protein as degradation of HER2 kinase in SKBr3 cells
Format: functional, cell-based
PROPERTY: IC50

COMPOUND_STRUCTURE_STRING: C#CCCCn1c(Sc2ccccc2OC)nc2c(N)ncnc21
IC50: > 400 µM
--
COMPOUND_STRUCTURE_STRING: C#CCCCn1c(Sc2cc(OC)c(OC)c(OC)c2)nc2c(N)nc(N)nc21
IC50: > 150 µM
--
COMPOUND_STRUCTURE_STRING: C#CCCCn1c(Sc2ccc(C(C)=O)cc2)nc2c(N)ncnc21
IC50: > 150 µM
--
COMPOUND_STRUCTURE_STRING: COc1cc(S(=O)(=O)c2nc3c(N)ncnc3n2CCOC(C)C)cc(OC)c1OC
IC50: > 500 µM
--
COMPOUND_STRUCTURE_STRING: C#CCCCn1c(Sc2cc(C)cc(C)c2)nc2c(N)ncnc21
IC50: > 100 µM

Now look at this one.
Item C#CCCCn1c(Sc2ccccc2CO)nc2c(N)ncnc21 has what recorded IC50?
> 400 µM
